This listing pairs molecules with measured pIC50.
Measured on: JAK1 (Homo sapiens, UniProt P23458)
Construct: 5 μl of catalytic domain recombinant Kinase enzyme+Tyr peptide substrate (Invitrogen, Calif.)
Sequence (P23458 875-1153 limits assumed): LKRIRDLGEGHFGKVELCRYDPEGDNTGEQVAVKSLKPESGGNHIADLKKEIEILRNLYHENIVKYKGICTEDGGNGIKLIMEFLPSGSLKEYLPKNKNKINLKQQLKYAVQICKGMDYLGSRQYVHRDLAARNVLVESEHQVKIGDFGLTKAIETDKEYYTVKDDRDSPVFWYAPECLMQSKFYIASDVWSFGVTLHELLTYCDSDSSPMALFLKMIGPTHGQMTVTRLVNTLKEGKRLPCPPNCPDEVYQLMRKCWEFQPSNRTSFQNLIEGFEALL
Measurement description: Z'-LYTE kinase assay, JAK1 tyrosine phosphorylation activity
Measurement conditions: read-out: JAK 1 IC50
pIC50: −log10 of the molar value.

Ask: # input molecule: NC(=O)c1cnc(Nc2ccc(Cl)c(NC(=O)N3CCOCC3)c2)nc1NCc1ccccc1 [Example 182] ; wanted: its pIC50
Result: 7.00 to 8.00

Ask: # input molecule: NC(=O)c1cnc(Nc2ccc(Cl)c(NC(=O)N3CCCC3)c2)nc1NCC1CC1 [Example 174] ; wanted: its pIC50
Result: 7.00 to 8.00

Ask: # input molecule: CC(=O)Nc1cc(Nc2ncc(C(N)=O)c(Nc3cccc4nsnc34)n2)ccc1OCCN(C)C [Example 230] ; wanted: its pIC50
Result: 7.00 to 8.00

* * *

This listing pairs compounds with measured IC50.
Measured on: TYK2 (Homo sapiens, UniProt P29597)
Construct: 5 μl of catalytic domain recombinant Kinase enzyme+Tyr peptide substrate (Invitrogen, Calif.)
Measurement description: Z'-LYTE kinase assay, TYK2 tyrosine phosphorylation activity

compound="CCCCNc1nc(Nc2cccc(NC(=O)N3CCCC3)c2)ncc1C(N)=O [Example 135]" property_label=IC50 result="1 to 10 nM"
compound="CC(=O)Nc1cccc(Nc2ncc(C(N)=O)c(Nc3ccc(N4CCOCC4)c(F)c3)n2)c1 [Example 198]" property_label=IC50 result="10 to 100 nM"

Next:
Ask: Recall the recorded IC50 for COCC(=O)Nc1cc(Nc2ncc(C(N)=O)c(NCc3ccccc3)n2)ccc1Cl [Example 106] with TYK2 (Homo sapiens, UniProt P29597) and state it.
Result: 10 to 100 nM

* * *

Measured on: TYK2 (Homo sapiens)
Construct: 5 μl of catalytic domain recombinant Kinase enzyme+Tyr peptide substrate (Invitrogen, Calif.)
Sequence (P29597 897-1176 limits assumed): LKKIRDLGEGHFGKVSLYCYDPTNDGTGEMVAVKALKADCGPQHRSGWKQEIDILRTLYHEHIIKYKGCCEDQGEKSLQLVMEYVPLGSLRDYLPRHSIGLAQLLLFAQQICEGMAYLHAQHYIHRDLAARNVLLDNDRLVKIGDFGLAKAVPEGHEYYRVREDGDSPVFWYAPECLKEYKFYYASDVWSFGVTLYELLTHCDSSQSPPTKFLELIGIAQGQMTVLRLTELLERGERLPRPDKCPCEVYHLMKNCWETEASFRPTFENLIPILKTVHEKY
Measurement description: Z'-LYTE kinase assay, TYK2 tyrosine phosphorylation activity
pIC50: −log10 of the molar value.
Property label: pIC50

// below: answered compounds
compound=CC(=O)Nc1cccc(Nc2ncc(C(N)=O)c(NCc3cccc(F)c3)n2)c1 result="7.00 to 8.00"
compound=NC(=O)c1cnc(Nc2cccc(NC(=O)N3CCCC3)c2)nc1NCc1ccccc1 result="8.00 to 9.00"
compound=CC(=O)Nc1cccc(Nc2ncc(C(N)=O)c(N[C@@H](CO)c3ccccc3)n2)c1 result="6.00 to 7.00"

Ask: # input compound: CC(=O)Nc1ccc(F)c(Nc2ncc(C(N)=O)c(NCc3ccccc3)n2)c1 ; wanted: its pIC50
Result: 6.00 to 7.00

Ask: # input compound: COC[C@H]1CCCN1C(=O)Nc1cccc(Nc2ncc(C(N)=O)c(N[C@H](C)c3ccccc3)n2)c1 ; wanted: its pIC50
Result: 7.00 to 8.00

* * *

This listing pairs molecules with measured IC50.
Measured on: JAK2 (Homo sapiens, UniProt O60674)
Construct: 5 μl of catalytic domain recombinant Kinase enzyme+Tyr peptide substrate (Invitrogen, Calif.)
Sequence (O60674 849-1124 limits assumed): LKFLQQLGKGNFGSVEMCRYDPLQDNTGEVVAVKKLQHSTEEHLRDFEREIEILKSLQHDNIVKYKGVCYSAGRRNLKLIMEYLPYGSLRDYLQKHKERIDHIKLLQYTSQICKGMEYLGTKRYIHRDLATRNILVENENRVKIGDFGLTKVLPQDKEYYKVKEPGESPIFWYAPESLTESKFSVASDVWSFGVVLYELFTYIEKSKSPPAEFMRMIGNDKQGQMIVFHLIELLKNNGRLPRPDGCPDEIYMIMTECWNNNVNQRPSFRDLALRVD
Measurement description: Z'-LYTE kinase assay, JAK2 tyrosine phosphorylation activity

molecule=CNC(=O)Nc1cc(Nc2ncc(C(N)=O)c(NCc3ccccc3)n2)ccc1F result="10 to 100 nM"

Ask: # input molecule: NC(=O)c1cnc(Nc2cccc(NC(=O)N3CCOCC3)c2)cc1NCc1cccnc1 ; wanted: its IC50
Result: 100 to 1000 nM

Ask: # input molecule: COC[C@@H]1CCCN1C(=O)Nc1cccc(Nc2ncc(C(N)=O)c(N[C@H](C)c3ccccc3)n2)c1 ; wanted: its IC50
Result: 10 to 100 nM

Ask: # input molecule: CC(=O)Nc1cc(Cl)cc(Nc2ncc(C(N)=O)c(NCc3ccccc3)n2)c1 ; wanted: its IC50
Result: 100 to 1000 nM

Ask: # input molecule: COCC(=O)Nc1cccc(Nc2ncc(C(N)=O)c(NCc3ccc(F)cc3)n2)c1 ; wanted: its IC50
Result: 10 to 100 nM

Ask: # input molecule: CC(=O)Nc1cccc(Nc2cc(NCCC(C)C)c(C(N)=O)cn2)c1 ; wanted: its IC50
Result: 100 to 1000 nM

Ask: # input molecule: CC(=O)Nc1cccc(Nc2ncc(C(N)=O)c(NCC(=O)N3CCCC3)n2)c1 ; wanted: its IC50
Result: 100 to 1000 nM

Ask: # input molecule: CNC(=O)Nc1cc(Nc2ncc(C(N)=O)c(NCc3ccccc3F)n2)ccc1Cl ; wanted: its IC50
Result: 100 to 1000 nM

Ask: # input molecule: C[C@@H](Nc1nc(Nc2cccc(NC(=O)N3CC[C@H](O)C3)c2)ncc1C(N)=O)c1ccccc1 ; wanted: its IC50
Result: 10 to 100 nM

Ask: # input molecule: CC[C@H](C)[C@@H](CO)Nc1nc(Nc2cccc(NC(C)=O)c2)ncc1C(N)=O ; wanted: its IC50
Result: 10 to 100 nM

Ask: # input molecule: NC(=O)Nc1cccc(Nc2ncc(C(N)=O)c(NCc3ccccc3)n2)c1 ; wanted: its IC50
Result: 10 to 100 nM

Ask: # input molecule: COC(=O)Nc1cc(Nc2ncc(C(N)=O)c(NCC(F)(F)F)n2)ccc1Cl ; wanted: its IC50
Result: 100 to 1000 nM

* * *

Measured on: JAK1 (Homo sapiens, UniProt P23458)
Construct: 5 μl of catalytic domain recombinant Kinase enzyme+Tyr peptide substrate (Invitrogen, Calif.)
Measurement description: Z'-LYTE kinase assay, JAK1 tyrosine phosphorylation activity
Measurement conditions: read-out: JAK 1 IC50
pIC50: −log10 of the molar value.
This listing pairs molecules with measured pIC50.

// below: answered molecules
entry_smiles=CC(=O)N(C)c1cccc(Nc2ncc(C(N)=O)c(NC(C)C)n2)c1 measured_on="JAK1 (Homo sapiens, UniProt P23458)" result="6.00 to 7.00"
entry_smiles=NC(=O)c1cnc(Nc2cccc(NC(=O)C3CCC3)c2)nc1NCc1ccccc1 measured_on="JAK1 (Homo sapiens, UniProt P23458)" result="6.00 to 7.00"
entry_smiles=COC(=O)Nc1cc(Nc2ncc(C(N)=O)c(NCc3ccccc3)n2)ccc1Cl measured_on="JAK1 (Homo sapiens, UniProt P23458)" result="6.00 to 7.00"
entry_smiles=COCC(=O)Nc1cccc(Nc2ncc(C(N)=O)c(NCC(F)(F)F)n2)c1 measured_on="JAK1 (Homo sapiens, UniProt P23458)" result="7.00 to 8.00"
entry_smiles=CNC(=O)Nc1cc(Nc2ncc(C(N)=O)c(NCc3ccccc3)n2)ccc1F measured_on="JAK1 (Homo sapiens, UniProt P23458)" result="< 6.00"

Ask: # input molecule: CC(C)CNc1nc(Nc2ccc(Cl)c(NC(=O)N3CCCC3)c2)ncc1C(N)=O ; wanted: its pIC50
Result: 7.00 to 8.00

Ask: # input molecule: C[C@@H](Nc1nc(Nc2ccc(Cl)c(NC(=O)NC3CCC3)c2)ncc1C(N)=O)c1ccccc1 ; wanted: its pIC50
Result: < 6.00

Ask: # input molecule: CC(=O)Nc1cccc(Nc2ncc(C(N)=O)c(N[C@@H]3CCc4ccccc43)n2)c1 ; wanted: its pIC50
Result: 7.00 to 8.00

* * *

This listing pairs compounds with measured pIC50.
Measured on: JAK2 (Homo sapiens, UniProt O60674)
Construct: 5 μl of catalytic domain recombinant Kinase enzyme+Tyr peptide substrate (Invitrogen, Calif.); purchased Invitrogen
Measurement description: Z'-LYTE kinase assay, JAK2 tyrosine phosphorylation activity
Format: biochemical
pIC50: −log10 of the molar value.

entry_smiles=CC(=O)Nc1cccc(Nc2cc(N[C@H]3CCc4ccccc43)c(C(N)=O)cn2)c1 measured_on="JAK2 (Homo sapiens, UniProt O60674)" result="< 6.00"

Next:
Ask: # input compound: CN(C)[C@@H]1CCN(C(=O)Nc2cccc(Nc3cc(NCc4cccnc4)c(C(N)=O)cn3)c2)C1 ; wanted: its pIC50
Result: 6.00 to 7.00

* * *

Measured on: JAK2 (Homo sapiens)
Construct: 5 μl of catalytic domain recombinant Kinase enzyme+Tyr peptide substrate (Invitrogen, Calif.)
Measurement description: Z'-LYTE kinase assay, JAK2 tyrosine phosphorylation activity
Description: JAK and TYK2 tyrosine phosphorylation activity is measured using the Z′-LYTE™ Technology developed by Invitrogen Corporation (Carlsbad, Calif.). For JAK1, JAK2 and JAK3 the Z′-LYTE™ Kinase Assay Kit-Tyr6 Peptide (part number PV4122) was used. […] The Z′-LYTE™ biochemical assay employs a fluorescence resonance energy transfer (FRET) coupled-enzyme format and is based on the differential sensitivity of phosphorylated and non-phosphorylated peptides to proteolitic cleavage. […]
pIC50: −log10 of the molar value.
This listing pairs molecules with measured pIC50.

entry_smiles=CC(=O)N(C)c1cccc(Nc2ncc(C(N)=O)c(NC3CCCC3)n2)c1 result="8.00 to 9.00"
entry_smiles=CC(=O)Nc1cc(Cl)cc(Nc2ncc(C(N)=O)c(NCc3cccc(F)c3)n2)c1 result="7.00 to 8.00"
entry_smiles=NC(=O)c1cnc(Nc2cccc(NC(=O)C3CCC3)c2)nc1NC1CCCC1 result="7.00 to 8.00"
entry_smiles=CC(=O)Nc1cccc(Nc2ncc(C(N)=O)c(N[C@H](CO)Cc3ccccc3)n2)c1 result="7.00 to 8.00"
entry_smiles=CN(C)[C@@H]1CCN(C(=O)Nc2cccc(Nc3cc(NCc4cccc(F)c4)c(C(N)=O)cn3)c2)C1 result="7.00 to 8.00"

Next:
Ask: # input molecule: CN(C(=O)N1CCCC1)c1cccc(Nc2ncc(C(N)=O)c(NCC3CC3)n2)c1 ; wanted: its pIC50
Result: 7.00 to 8.00
